Where these numbers come from: PubChem BioAssay (NCI)

- Tested on: HOP-62 NSCLC
- experimental protocol: NCI-60 one-dose screen, 48 h (100 = growth as untreated, 0 = no growth, -100 = all killed)
- reported conditions: 10 µM unless noted
About 83,000 compounds went through this panel and 20% of them were active in at least one assay; those are over-represented in the sample as a whole.
observation type: growth (%)
Report the figure in % without appending any unit label.

Here is how some compounds turned out for growth.
1) COc1ccccc1N(C(C)=O)C1=C(Cl)C(=O)c2ccccc2C1=O	38.6
2) Cc1ccc(S(=O)(=O)c2nc(-c3ccccc3)oc2Sc2nc3ccccc3s2)cc1	97.1

In: Fill in the blank: the reported growth of O=[N+]([O-])c1ccc(-c2cn3nc(-c4c[nH]c5ccccc45)sc3n2)cc1 is ____.
Out: 94.6

In: Fill in the blank: the reported growth of Cc1ccc(/C=C/C(=O)Nc2ncc(Cc3ccc(F)cc3)s2)o1 is ____.
Out: 55.1

In: Fill in the blank: the reported growth of CS(=O)(=O)c1nnc(-c2ccccc2)s1 is ____.
Out: 85.5

In: Fill in the blank: the reported growth of CNC(=O)c1cc(Oc2ccc3c(c2)sc2nc(-c4ccc(OC)cc4)cn23)ccn1 is ____.
Out: 19.4

In: Fill in the blank: the reported growth of CCN1C(=O)N(CC)C2Nn3c(s/c(=C\c4ccccc4Br)c3=O)=NC21 (stereo not given) is ____.
Out: 37

In: Fill in the blank: the reported growth of COc1ccc(C(=O)c2cc3c(N)c(C(=O)Nc4ccccc4)sc3nc2C)cc1 is ____.
Out: 44.8

In: Fill in the blank: the reported growth of COc1ccc2[nH]cc(-c3nc(-c4c[nH]c5c(Cl)nccc45)cs3)c2c1 is ____.
Out: 61.2

In: Fill in the blank: the reported growth of Cc1ccc(S(=O)(=O)Oc2ccc3sc4cccc(NCCN(C)C)c4c(=O)c3c2)cc1 is ____.
Out: -89.6

====

- Tested on: 786-0 renal
- experimental protocol: NCI-60 one-dose screen, 48 h
- reported conditions: 10 µM unless noted
Compounds without any hit were thinned out: in the full panel of roughly 83,000, 20% have a hit. Activity calls are given as the source filed them. How the source made its calls: active means growth percent below 10; inactive means the rest.
Respond using exactly one of the listed classes: y = active, n = inactive

1. N#C/C(=C\C=C\c1ccc(-c2cc(Cl)ccc2Cl)o1)c1nc2ccccc2s1	n

In: Fill in: this test's call for O=C(Nc1ccc(Cl)cc1)Oc1c(Cl)c(Cl)c(Cl)c(Cl)c1Cl is ___
Out: n

In: Fill in: this test's call for COc1ccc(-c2nn(-c3ccccc3)cc2/C=C/C(=O)NNC(=O)Nc2ccc(C)cc2)cc1 is ___
Out: n

In: Fill in: this test's call for Cc1ccc2nc(NC(=O)CSc3nc(-c4ccccc4)c(C#N)c4nnnn34)sc2c1 is ___
Out: n

In: Fill in: this test's call for NS(=O)(=O)c1ccc(-c2cc(-c3nnc(SCC(=O)Nc4ccc(C(=O)/C=C/c5ccc(Cl)cc5)cc4)n3-c3ccccc3)c3ccccc3n2)cc1 is ___
Out: n

In: Fill in: this test's call for CN1CCN(CCOc2ccc(-c3cnc4c(-c5cccc(F)c5F)cnn4c3)cc2)CC1 is ___
Out: y

In: Fill in: this test's call for CCOC(=O)C1=C(C)C(Cl)=N/C1=C\c1[nH]c(Cl)c(C)c1C(=O)OCC is ___
Out: n

In: Fill in: this test's call for Nc1nc(NC(=O)Nc2ccc(C(=O)O)cc2)nn1-c1ccc(S(N)(=O)=O)cc1 is ___
Out: n

In: Fill in: this test's call for CCOC(=O)C(=CNc1cnc(Nc2ccc(N3CCOCC3)cc2)nc1Oc1ccc(OC)cc1)C(=O)OCC is ___
Out: n

====

- Test system: KM12 colon
- experimental protocol: NCI-60 one-dose screen, 48 h (100 = growth as untreated, 0 = no growth, -100 = all killed)
- reported conditions: 10 µM unless noted
About 83,000 compounds went through this panel and 20% of them were active in at least one assay; those are over-represented in the sample as a whole. Activity calls are given as the source filed them. How the source made its calls: active means growth percent below 10; inactive means the rest.
This section presents molecules with their documented growth values.

1. CC(=O)O[C@H]1C[C@@H]2C(C)(C)C(=O)CC[C@@]2(C)c2ccc(C(C)C)cc21	97.7% (inactive)
2. Cc1ccc2c(-n3nc(C#N)c(C#N)c3N)cc(=O)[nH]c2c1	94.8% (inactive)
3. CN1CCN(C(=S)SCCCCOc2cc(=O)oc3ccccc23)CC1	85.4% (inactive)

In: Fill in the blank: the reported growth of Cc1ccc2c(-c3nnc(N)s3)cc(=O)oc2c1C is ____.
Out: 105% (inactive)

In: Fill in the blank: the reported growth of COC(=O)/C=C1/SC(=Nc2ccc([N+](=O)[O-])cc2)N(CCc2c[nH]c3ccc(O)cc23)C1=O is ____.
Out: 41.7% (inactive)

In: Fill in the blank: the reported growth of CCN(CC)c1ccc(/C=N/NC(=O)Cc2ccc(Nc3ccnc(C(F)(F)F)c3)cc2)c(O)c1 is ____.
Out: 41% (inactive)

In: Fill in the blank: the reported growth of COC(=O)N1CC(Oc2ccccn2)C2CC1c1ccccc1O2 (centres undefined) is ____.
Out: 107% (inactive)

In: Fill in the blank: the reported growth of C/C(=N\O)[C@@H]1CC[C@]2(CO)CC[C@]3(C)[C@H](CC[C@@H]4[C@@]5(C)CCCNC(C)(C)[C@@H]5CC[C@]43C)[C@@H]12 is ____.
Out: 83.6% (inactive)

In: Fill in the blank: the reported growth of CN(CCC(=O)c1ccccc1)CCC(=O)c1ccccc1 is ____.
Out: 98.7% (inactive)

====

- Tested on: UO-31 renal
- experimental protocol: NCI-60 one-dose screen, 48 h
- reported conditions: 10 µM unless noted
- Protocol: Growth inhibition of the UO-31 human tumor cell line is measured as a screen for anti-cancer activity. Cells are grown in 96 well plates and exposed to the test compound for 48 hours. Compounds are tested at a single concentration, which is 10^-5 M for most compounds. The reported endpoint is percent growth (GI% or GIPRCNT), where numbers from 0 - 100% represent growth inhibition, and numbers from -100% - 0 represent cell death. For example, a value of 40 represents 60% growth inhibition. […]
This is part of a sample that, as a whole, favours compounds with a hit. Of some 83,000 tested, about 20% had one in any assay. Active and inactive are the calls of the source. How the source made its calls: active means growth percent below 10; inactive means the rest.
Respond using exactly one of the listed classes: Yes (active), No (inactive)

Here are 3 compounds together with their reported answers.
1. COc1ccc(-c2nn(-c3ccccc3)cc2/C=C/C(=O)NNC(=O)Nc2ccc(C)cc2)cc1	No
2. COC(=O)CCC/C=C\C[C@H]1C=CC(=O)/C1=C/C[C@@H](O)C/C=C\CC(F)(F)F	Yes
3. CN(CCCNC(=O)CCOCCOCCOCCNC(=O)Cc1ccc2ccc3cccc4ccc1c2c34)CCCNc1cc(-c2ccc3ccccc3c2)nc2ccccc12	Yes

Here is another compound to look at.
In: Fill in: this test's call for O=C(CN1CCCCCC1)Nc1nc2ccc(NCc3ccc(Cl)cc3)cc2s1 is ___
Out: No

====

- System: EKVX NSCLC
- experimental protocol: NCI-60 one-dose screen, 48 h (100 = growth as untreated, 0 = no growth, -100 = all killed)
- reported conditions: 10 µM unless noted
Compounds without any hit were thinned out: in the full panel of roughly 83,000, 20% have a hit.
Please use True for growth under 50% and False for everything else, ties included.

Here are 4 compounds together with their reported answers.
1. CC1(C)NCCC[C@]2(C)[C@H]3CC[C@H]4[C@H]5[C@H](C(=O)/C=C/c6cccnc6)CCC[C@]5(CO)CC[C@@]4(C)[C@]3(C)CC[C@@H]12	False
2. COc1ccccc1N(C(C)=O)C1=C(Cl)C(=O)c2ccccc2C1=O	True
3. COc1cccc(-c2cc(-c3cccc(Cl)c3)c(C#N)c(=O)[nH]2)c1	False
4. O=C(Cc1cccc(OC(F)(F)F)c1)Nc1ccc(CCCCc2nnc(NC(=O)Cc3ccccn3)s2)nn1	False

Here is another compound to look at.
In: Lab log: compare recorded growth with 50%; is it strictly lower for O=C1/C=C/[C@@H](O)[C@@H]2C[C@@H](O)C[C@H]2/C=C/CCC[C@@H](O)CCO1 ?
Out: False

====

- Tested on: MDA-MB-231 breast
- experimental protocol: NCI-60 one-dose screen, 48 h
- reported conditions: 10 µM unless noted
About 83,000 compounds went through this panel and 20% of them were active in at least one assay; those are over-represented in the sample as a whole. The source made the active and inactive calls. How the source made its calls: active means growth percent below 10; inactive means the rest.
Respond using exactly one of the listed classes: active, inactive

Here are 5 compounds together with their reported answers.
1. C=C1C(=O)O[C@H]2[C@H]1CC/C(COC(=O)/C=C/C(=O)OC/C1=C/CC[C@@]3(C)O[C@H]3[C@H]3OC(=O)C(=C)[C@@H]3CC1)=C\CC[C@@]1(C)O[C@@H]21	active
2. COC(=O)c1nc(-c2ccccc2)oc1S(=O)(=O)NCC(c1ccc(Cl)cc1)N1CCOCC1 (centres undefined)	inactive
3. O=C(O)[C@@H](Cc1ccc2ccccc2c1)NC(=O)n1c2ccccc2c2ccccc21	inactive
4. Cc1cc(Nc2ccc(C(=O)N3CCCC3)cc2)nc(NCCCNc2ccnc3cc(Cl)ccc23)n1	inactive
5. C/C(Cc1ccc(Cl)cc1)=C(\c1ccc(OCCCN(C)C)cc1)c1ccc(OC(=O)Cc2ccccc2)cc1	inactive

In: Fill in: this test's call for N#C/C(=C\c1cn(Cc2ccccc2)c2ccccc12)C(=O)Nc1ncc(Cc2ccccc2Cl)s1 is ___
Out: inactive

In: Fill in: this test's call for Cc1ccc(/C=C/C(=O)c2ccc(-n3cc(CN4CCN(c5cc6c(cc5F)c(=O)c(C(=O)O)cn6C5CC5)CC4)nn3)cc2)cc1 is ___
Out: inactive

In: Fill in: this test's call for C=CC(=O)Nc1ccc(Nc2nccc(-c3ccc(N4CCCC4)c(C#N)c3)n2)cc1 is ___
Out: inactive
